Hello, the source for this data is PubChem BioAssay (NCI), in case you need it.

System: NCI-H226 lung
Experiment: NCI tumour cell line growth inhibition, 48 h; in the data active = GI50 below about 0.43 µM; inactive = the rest
Pick one: active, inactive

Prompt: Recorded test outcome, item Cc1c(Nc2nccc3cc(CN4CC[C@@H](O)C4)cnc23)cccc1-c1cccc(-c2nc3cc(CN4CC[C@@H](C(=O)O)C4)cc(C#N)c3o2)c1C
Response: inactive

Prompt: Recorded test outcome, item FC(F)c1ncc(-c2ccc(C(F)(F)F)cc2)c(NC2CCCCCC2)n1
Response: inactive

Prompt: Recorded test outcome, item CC12CCC(=O)C(O1)C1C(=O)c3ccc4c(ccc5ccccc54)c3C(=O)C12 (stereo unspecified)
Response: inactive

Prompt: Recorded test outcome, item O=C1NC(=O)C(c2cccc(Cl)c2)=C1Nc1ccc(Cl)c(C(=O)O)c1
Response: inactive

Prompt: Recorded test outcome, item COc1ccc2nc(C)cc(Sc3nc4ccccc4s3)c2c1
Response: inactive

Prompt: Recorded test outcome, item O=c1cc(-c2ccccc2)[nH]c2c1CCCC2
Response: inactive

Prompt: Recorded test outcome, item Cc1nc(NS(=O)(=O)c2ccc(NCN3C(=O)c4ccccc4C3=O)cc2)oc1C
Response: inactive

Prompt: Recorded test outcome, item CCOC(=O)c1c(-c2ccccc2)[n+](=O)c2cc(F)c(F)cc2n1[O-]
Response: inactive

Prompt: Recorded test outcome, item CN1CCN(CCCOc2ccc3nc(Nc4ccc(F)c(F)c4)ccc3c2)CC1
Response: inactive

Prompt: Recorded test outcome, item CN1CCN(C(=O)c2ccc(NC(=O)Nc3ccc(-c4nc(N5CCOCC5)c5cccn5n4)cc3)cc2)CC1
Response: active

Prompt: Recorded test outcome, item O=C1NC(=O)C(=Cc2cn(Cc3ccccc3)c3ccccc23)C(=O)N1
Response: inactive

---

I'd be grateful if you could share measured GI50 for these entries.
System: SK-MEL-5 melanoma
Assay: NCI tumour cell line growth inhibition, 48 h

Quick note, GI50 for CCN(CC)CCCNCc1cc(-c2ccccc2)nc2cc(Cl)ccc12 landed at 1.57 µM

Quick note, GI50 for O=C(O)Cn1c2c(c3c1-c1ccccc1C3=O)C(=O)CCC2 landed at > 100 µM

Quick note, GI50 for CCOC(=O)c1c(-c2ccccc2)[n+](=O)c2cc(F)c(F)cc2n1[O-] landed at 1.53 µM

Quick note, GI50 for N#C/C(=C/N1CCN(C(=O)c2ccco2)C1=S)C(=O)Nc1ccc(Cl)cc1 landed at 11.2 µM

Quick note, GI50 for O=C1NC(=O)C(=Cc2cn(Cc3ccccc3)c3ccccc23)C(=O)N1 landed at 11.3 µM

Quick note, GI50 for Cc1cc(=O)[nH]c(N/N=C/c2ccccc2O)n1 landed at 4.19 µM

Quick note, GI50 for COc1cc(F)c(F)cc1C(=O)c1cnc(NC2CCN(S(C)(=O)=O)CC2)nc1N landed at 2.07 µM

Quick note, GI50 for COc1cc2nc(N3CCC[C@H](NC4=CC(=O)c5ccccc5C4=O)C3)nc(N)c2cc1OC landed at 1.73 µM

Quick note, GI50 for CC(C)=Cc1cc(C)c2ccc(C)c3c2c1C(C)=C(O)C3=O landed at 15.3 µM

Quick note, GI50 for COc1cc(S(=O)(=O)Nc2nc(-c3ccc(N4C(=O)C(C)SC4c4ccccc4O)cc3)cs2)ccc1Cl (stereo unspecified) landed at 26 µM

Quick note, GI50 for COC1=C(OC)C(=O)C(C/C=C(\C)CC/C=C(\C)CC/C=C(\C)CC/C=C(\C)CC/C=C(\C)CC/C=C(\C)CC/C=C(\C)CC/C=C(\C)CC/C=C(\C)CCC=C(C)C)=C(C)C1=O landed at > 100 µM

---

Test system: RXF 393 renal
Assay: NCI tumour cell line growth inhibition, 48 h
Definition: the class of an entry is the range in I = under 5 µM, II = from 5 µM up to 40 µM, III = 40 µM and over that contains its TGI.

Prompt: Just checking, what class would you give N#C/C(=C/N1CCN(C(=O)c2ccco2)C1=S)C(=O)Nc1ccc(Cl)cc1 here?
Response: III

Prompt: Just checking, what class would you give COC(=O)CCC(=O)NC1=C(Nc2ccccc2)C(=O)c2ccccc2C1=O here?
Response: II

Prompt: Just checking, what class would you give COc1ccc(N2C(=O)[C@@H](N=[N+]=[N-])[C@@H]2[C@H]2COC(C)(C)O2)cc1 here?
Response: III

Prompt: Just checking, what class would you give CC(=O)c1c[nH]c2ccc(-c3ccnc(Nc4ccc(NC(=O)C5CCCC5)c(CN5CCOCC5)c4)n3)cc12 here?
Response: I

Prompt: Just checking, what class would you give Cc1nc2ccc(Br)cc2c(=O)n1-c1ccc(N)cc1 here?
Response: III

Prompt: Just checking, what class would you give CCC[CH2][Sn]([CH2]CCC)([CH2]CCC)/[C](=C/[Si](C)(C)c1ccccc1)c1ccc2c(c1)OCO2 here?
Response: III

Prompt: Just checking, what class would you give Cc1cc(N2CCCCC2)nc2ccc(Cc3ccc4nc(N5CCCCC5)cc(C)c4c3)cc12 here?
Response: III

Prompt: Just checking, what class would you give Cc1ccc(N2C(=O)/C(=C/c3ccc(N(CCC#N)CCC#N)cc3)N=C2COc2ccc(Cl)cc2Cl)cc1 here?
Response: III

Prompt: Just checking, what class would you give CCCCCCCCCCCNC=O here?
Response: III

Prompt: Just checking, what class would you give O=C1C=CC2(O[C@H](C3CCCCC3)[C@@H](C3CCCCC3)O2)C(SC(=O)c2ccccc2)C1 (stereo not given in full) here?
Response: I

Prompt: Just checking, what class would you give COc1ccc(/C=c2\[nH]c3nc(=O)c(N4CCCCC4)c(N)n3c2=O)cc1 here?
Response: III

Prompt: Just checking, what class would you give CC(C)(C)c1cc(OCc2nnc3sc(Cc4ccccc4)nn23)c(Cl)cc1OCc1nnc2sc(Cc3ccccc3)nn12 here?
Response: II

Prompt: Just checking, what class would you give C/C(=C\Cc1ccc(F)cc1)CCCCCC/C(C)=C/Cc1ccc(F)cc1 here?
Response: III

Prompt: Just checking, what class would you give CCCCCCC(=O)C/C(CCC(=O)N(Cc1ccccc1)Cc1ccccc1)=N\NC(N)=O here?
Response: III

Prompt: Just checking, what class would you give O=C1CC(c2ccsc2)n2cccc21 (stereo not given) here?
Response: III

Prompt: Just checking, what class would you give O=c1[nH]n(CCc2ccccc2CCl)c2ccc([N+](=O)[O-])cc12 here?
Response: III

Prompt: Just checking, what class would you give COC(=O)CC1(O)C=CC(=O)C=C1 here?
Response: II

Prompt: Just checking, what class would you give CN1CCN(CCCOc2ccc3nc(Nc4ccc(F)c(F)c4)ccc3c2)CC1 here?
Response: I

---

System: HOP-92 NSCLC
Test: NCI tumour cell line growth inhibition, 48 h
I'd be grateful if you could share measured TGI for these entries.

Quick note, TGI for CC(C)=Cc1cc(CCC/C(C)=C/Cc2c(O)cc(C)c(C(=O)O)c2O)co1 landed at > 100 µM

Quick note, TGI for CCN(CC)CCCNCc1cc(-c2ccccc2)nc2cc(Cl)ccc12 landed at 5.02 µM

Quick note, TGI for Cc1nc(C)c(N2CCN(CN)CC2)c(=O)[nH]1 landed at > 100 µM

Quick note, TGI for Oc1ccc(Cl)cc1-c1cc(-c2ccccc2)nc(=S)[nH]1 landed at 47.6 µM

Quick note, TGI for CC1=C(CO)C(=O)O[C@@H]([C@@H](C)[C@H]2CC[C@H]3[C@@H]4C[C@H]5O[C@]56[C@@H](O)C=CC(=O)[C@]6(C)[C@H]4CC[C@]23C)C1 landed at 1.46 µM

Quick note, TGI for O=C1NC(=O)C(c2cccc(Cl)c2)=C1Nc1ccc(Cl)c(C(=O)O)c1 landed at > 25 µM

Quick note, TGI for O=c1cc[nH]cc1-c1c[nH]ccc1=O landed at > 100 µM

Quick note, TGI for COc1cccc2c1OC1c3ccccc3OCC1(O)C2 (stereo not given) landed at > 100 µM

Quick note, TGI for COc1cc(Cc2c(C)cc(OC)c3[nH]c4ccccc4c23)cc2c1[nH]c1ccccc12 landed at > 25 µM

Quick note, TGI for CCOC(=O)C1CCC(=O)N1C(=O)c1cccc(Cl)c1 (stereo not given) landed at > 100 µM

---

I'd be grateful if you could share measured TGI for these entries.
Tested on: HOP-62 NSCLC
Assay: NCI tumour cell line growth inhibition, 48 h
Where a SMILES comes first, the peptide text is derived from it. [ ]: non-standard residue; d: D form. The star is where a group is joined. Phe(4-NO2) = N[CH](Cc1ccc([N+](=O)[O-])cc1)C(=O)O; Boc = CC(C)(C)OC(=O)*
Quick reminder: number only, in µM, skip the unit.

Quick note, TGI for CCOC(=O)c1c(-c2ccccc2)[n+](=O)c2cc(F)c(F)cc2n1[O-] landed at 3.24

Quick note, TGI for CCOC(=O)CCC(NC(=O)C(Cc1ccc([N+](=O)[O-])cc1)NC(=O)OC(C)(C)C)C(=O)NC(CCC(=O)OCC)C(=O)OCC (centres undefined) (Boc-[Phe(4-NO2)]-Glu(OEt)-Glu(OEt)-OEt; configuration not given here) landed at 67.4

Quick note, TGI for COc1cc(Cl)c(CC(=O)c2c[nH]c3ccccc23)cc1OC landed at 28.7
